Subject Of Test: NADPH oxidase 1 (Homo sapiens)
Procedure Summary: inhibitors of human NADPH oxidase 1 (Nox1) (AID 1792)
Protocol Conditions: HT29 cells, luminol chemiluminescence ROS; at 6.7 µM; stronger effect = higher value
About 130 (0.81%) of roughly 16,000 compounds were called active. The full list was thinned out, with actives kept by preference.
inhibition values for the molecules below.
State just the number; it will be interpreted in %.

CCOC(=O)c1cc(C)nc(Sc2ccccc2NC(=O)Nc2ccc(Cl)cc2)c1C#N
34.3
COC(=O)c1ccccc1N(C)C(=O)c1cc(OC)c(OC)c(OC)c1
-18
O=C(O)c1ncoc1-c1cccc(Cl)c1
-52.4
Cn1nc(-c2ccccc2)cc1N
12.5

Moving on to another molecule below.
Data request, read-out inhibition, for CC(=O)Nc1ccc(NC(=O)c2cc(C)ccc2[N+](=O)[O-])c(C)c1 -28.7
